Target: cytoplasmic kinase domain of human IGF-1R (IGF-1R-GST) (Homo sapiens)
Construct: cytoplasmic kinase domain of human IGF-1R (amino acids 964-1370); GST (glutathione-S-transferase)
Sequence (P08069 964-1367 limits assumed): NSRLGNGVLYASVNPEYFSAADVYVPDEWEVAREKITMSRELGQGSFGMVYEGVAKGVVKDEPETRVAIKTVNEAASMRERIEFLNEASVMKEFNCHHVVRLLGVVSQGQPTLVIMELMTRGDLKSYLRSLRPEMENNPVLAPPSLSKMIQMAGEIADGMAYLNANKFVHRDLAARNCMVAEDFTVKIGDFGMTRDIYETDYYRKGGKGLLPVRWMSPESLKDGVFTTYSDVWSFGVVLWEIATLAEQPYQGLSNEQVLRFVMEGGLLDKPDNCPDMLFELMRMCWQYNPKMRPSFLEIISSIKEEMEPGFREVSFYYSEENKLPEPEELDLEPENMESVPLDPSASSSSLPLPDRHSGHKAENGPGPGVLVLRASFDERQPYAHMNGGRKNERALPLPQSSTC
Experiment: Insulin-like growth factor-1 receptor (IGF-1R) kinase assay (DELFIA)
Settings: IGF-1R-GST kinase activity, read-out: IGF1R IC50
Protocol: Insulin-Like Growth Factor-1 Receptor (IGF-1R)-Kinase Assay The kinase activity is measured by DELFIA® assay (dissociation-enhanced lanthanide fluorescence immunoassay, Perkin Elmer). […] Enzyme activity is measured in the presence of substances and a control substance. […] After 40 min at RT the reactions are stopped with 50 μL of stop solution (250 mM EDTA, 20 mM HEPES pH 7.4). […] The fluorescence signal is measured with a Wallac Victor TRF Reader. […]
pIC50: −log10 of the molar value.
RESULT_TYPE: pIC50

Example compounds with recorded pIC50:
{"COMPOUND": "COc1cc(C2CCCN(CC(C)(C)O)C2)ccc1Nc1ncc(Br)c(NCc2cccc3c2C(C)(C)C(=O)N3)n1 (racemic)", "pIC50": 9.30}
{"COMPOUND": "COc1cc(N2CCN(C(=O)N(C)C)CC2)ccc1Nc1ncc(C(F)(F)F)c(NCc2cccc3c2C(C)(C)C(=O)N3)n1", "pIC50": 7.96}
{"COMPOUND": "CC1(C)C(=O)Nc2cccc(CNc3nc(Nc4ccc(C5CCN(CCO)CC5)cc4)ncc3Cl)c21", "pIC50": 8.70}
{"COMPOUND": "Cc1cc(C2CCN(CC(O)C(F)(F)F)CC2)ccc1Nc1ncc(Cl)c(NCc2cccc3c2C(C)(C)C(=O)N3)n1 (stereo not shown)", "pIC50": 8.70}
{"COMPOUND": "COc1cc(N2CCN(C(=O)C3CCCN(C)C3)CC2)ccc1Nc1ncc(C(F)(F)F)c(NCc2cccc3c2C(C)(C)C(=O)N3)n1 (stereo not shown)", "pIC50": 9.49}

[I] COc1cc(N2CCN(C3CCN(C4CCOCC4)CC3)CC2)ccc1Nc1ncc(C(F)(F)F)c(NCc2cccc3c2CC(=O)N3)n1
[II] COCCN1CCN(c2ccc(Nc3ncc(C(F)(F)F)c(NCc4cccc5c4C(C)(C)C(=O)N5)n3)c(OC)c2)CC1
Name the one with the greater pIC50 value, either I or II as given. Please identify the chosen entry by its label.
II
(II: 8.70, I: 8.00)
